TESTED_SYSTEM: hPDE10A2 (Homo sapiens)
Sequence (Q9Y233 267-1055): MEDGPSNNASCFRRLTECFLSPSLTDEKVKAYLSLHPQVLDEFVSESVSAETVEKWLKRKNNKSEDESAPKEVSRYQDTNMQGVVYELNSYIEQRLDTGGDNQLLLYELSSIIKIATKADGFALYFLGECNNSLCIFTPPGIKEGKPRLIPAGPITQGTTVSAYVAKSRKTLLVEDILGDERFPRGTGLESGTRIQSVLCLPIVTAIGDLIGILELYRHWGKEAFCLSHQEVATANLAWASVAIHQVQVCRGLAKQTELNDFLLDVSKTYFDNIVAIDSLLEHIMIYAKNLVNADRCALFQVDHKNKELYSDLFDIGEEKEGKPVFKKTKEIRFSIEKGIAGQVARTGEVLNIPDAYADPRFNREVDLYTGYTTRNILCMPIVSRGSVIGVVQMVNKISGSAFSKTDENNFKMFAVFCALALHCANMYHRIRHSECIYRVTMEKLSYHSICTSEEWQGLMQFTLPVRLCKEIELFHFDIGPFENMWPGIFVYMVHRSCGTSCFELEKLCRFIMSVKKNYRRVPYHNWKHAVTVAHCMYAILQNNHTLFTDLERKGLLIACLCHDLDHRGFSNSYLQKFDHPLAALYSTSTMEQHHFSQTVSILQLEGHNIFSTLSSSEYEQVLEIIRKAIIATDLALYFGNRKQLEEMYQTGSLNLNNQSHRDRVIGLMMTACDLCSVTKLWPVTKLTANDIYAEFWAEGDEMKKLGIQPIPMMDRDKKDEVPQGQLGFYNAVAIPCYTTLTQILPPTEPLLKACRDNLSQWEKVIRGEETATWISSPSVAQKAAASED
ASSAY_REMARKS: biochemical
CONDITION_NOTES: human clone; 60 nM cAMP substrate; read-out: hPDE10A2 or rPDE10A2 pIC50 (converted)
Some compounds, each annotated with its measured IC50.
MEASURED_METRIC: IC50 (µM)

{"columns": ["COMPOUND", "U", "QUALIFIER_SIGN", "REPORTED_VALUE"],
 "data": [
  ["C[C@@H]1CCN(Cc2ccc3nccn3c2)C[C@H]1c1cc(C(F)F)nc2ncnn12", "µM", "=", 4.68],
  ["Cc1cc(CN2CC[C@@H](C)[C@H](c3cc(C(F)F)nc4ncnn34)C2)cc(Cl)n1.Cl", "µM", "=", 1.58],
  ["CC(C)c1ccc(CN2CC[C@@H](C)[C@H](c3cc(C(F)F)nc4ncnn34)C2)cc1", "µM", "=", 7.76],
  ["C[C@@H]1CCN(CC2CCOCC2)C[C@H]1c1cc(C(F)F)nc2ncnn12.Cl", "µM", ">", 10],
  ["COc1ccc(CN2CC[C@@H](C)[C@@H](c3cc(C(F)F)nc4ncnn34)C2)c(OC)c1", "µM", ">", 10],
  ["C[C@]1(c2cc(C(F)F)nc3ncnn23)CCCN(Cc2ccc(F)c(F)c2)C1.Cl (stereo in doubt)", "µM", ">", 10],
  ["C[C@H]1CCN(Cc2cc3ccccc3o2)C[C@@H]1c1cc(C(F)F)nc2ncnn12.Cl", "µM", ">", 10],
  ["C[C@@H]1CCN(Cc2ccc(F)c(C(F)(F)F)c2)C[C@H]1c1cc(C(F)F)nc2ncnn12", "µM", "=", 7.94],
  ["C[C@@H]1CCN(Cc2nccc3ccccc23)C[C@H]1c1cc(C(F)F)nc2ncnn12", "µM", "=", 8.51],
  ["Cc1cc([C@@H](C)N2CC[C@@H](C)[C@H](c3cc(C(F)F)nc4ncnn34)C2)cc(C2CC2)n1 (relative stereo)", "µM", "=", 1.26],
  ["C[C@@H]1CCN(Cc2cccc(N3CCCCC3)n2)C[C@H]1c1cc(C(F)F)nc2ncnn12", "µM", ">", 10],
  ["Cc1cc(CN2CC[C@@H](C)[C@H](c3cc(C(F)F)nc4ncnn34)C2)cc(C)c1Cl.Cl", "µM", "=", 3.72],
  ["Cc1cc(CN2CC[C@@H](C)[C@H](c3cc(C(F)F)nc4ncnn34)C2)cc(C2CC2)n1", "µM", "=", 1.58],
  ["CC(C)CN1CC[C@@H](C)[C@H](c2cc(C(F)F)nc3ncnn23)C1", "µM", ">", 10],
  ["C[C@@H]1CCN(Cc2ccc(OC(F)(F)F)cc2)C[C@H]1c1cc(C(F)F)nc2ncnn12", "µM", "=", 6.92],
  ["Cc1cc(CN2CC[C@H](C)[C@@H](c3cc(C(F)F)nc4ncnn34)C2)ccn1.Cl", "µM", ">", 10],
  ["C[C@@H]1CCN(Cc2ccc(F)c(F)c2)C[C@H]1c1cc(C(F)F)nc2ncnn12.Cl", "µM", ">", 10],
  ["Cc1cc(CN2CC[C@@H](C)[C@@](F)(c3cc(C(F)F)nc4ncnn34)C2)cc(C)n1 (single isomer, unassigned)", "µM", ">", 10],
  ["C[C@H]1CCN(CC2CCOCC2)C[C@@H]1c1cc(C(F)F)nc2ncnn12.Cl", "µM", ">", 10],
  ["Cc1cc(C(C)N2CC[C@@H](C)[C@H](c3cc(C(F)F)nc4ncnn34)C2)cc(C)n1 (mixture of isomers) [Compound 1]", "µM", "=", 2.95],
  ["C[C@@H]1CCN(Cc2ccccc2)C[C@H]1c1cc(C(F)F)nc2ncnn12", "µM", ">", 10],
  ["Cc1csc(CN2CC[C@@H](C)[C@H](c3cc(C(F)F)nc4ncnn34)C2)c1.Cl", "µM", "=", 6.92],
  ["C[C@@H]1CCN([C@H](C)c2ccc3ncsc3c2)C[C@H]1c1cc(C(F)F)nc2ncnn12 (single isomer, unassigned)", "µM", "=", 2.04],
  ["C[C@@H]1CCN(Cc2ccc(F)c(F)c2)C[C@@H]1c1cc(C(F)F)nc2ncnn12", "µM", ">", 10],
  ["Cc1cc(C(C)N2CC[C@@H](C)[C@H](c3cc(C(F)F)nc4ncnn34)C2)cc(C)n1 (single isomer, unassigned) [Compound 1b]", "µM", "=", 2.88],
  ["C[C@@H]1CCN(Cc2nn(C)c3ccccc23)C[C@H]1c1cc(C(F)F)nc2ncnn12", "µM", ">", 10],
  ["Cc1cc(CN2CC[C@@H](C)[C@H](c3cc(C(F)F)nc4ncnn34)C2)cc(C)n1.Cl", "µM", "=", 4.07],
  ["Cc1cc(CN2CCC(C)C(F)(c3cc(C(F)F)nc4ncnn34)C2)cc(C)n1 (stereo not drawn)", "µM", ">", 10]
]}
